Recorded values, source paper PMC12655527.

- Protocol Text: Pharmacokinetic parameters (Tmax, AUClast, Cmax) of DD217 in phase II trial patients
- Assay type: in vivo, human (patients undergoing knee replacement surgery)
- Condition Details: human, plasma, oral, 40 mg/day; ABCB1 rs1128503 T>C, T/T (n 2); read-out: Tmax (SD)
Property: Tmax (h)
// units = h; emit number, no label

Data request: // returns reported Tmax for input CC(=N)N(C)c1ccc(C(=O)Nc2ccc(C)cc2C(=O)Nc2ccc(Cl)cn2)cc1.Cl [DD217]
Data returned: 3

----------
- Protocol Text: Pharmacokinetic parameters (Tmax, AUClast, Cmax) of DD217 in phase II trial patients
- Assay type: in vivo, human (patients undergoing knee replacement surgery)
- Condition Details: human, plasma, oral, 60 mg/day; ABCB1 rs1128503 C/C (n 4); read-out: Cmax (SD)
Property: Cmax (ng/mL)
Quick reminder: number only, in ng/mL, skip the unit.

Data request: Suppose we examine the compound `CC(=N)N(C)c1ccc(C(=O)Nc2ccc(C)cc2C(=O)Nc2ccc(Cl)cn2)cc1.Cl` ; what Cmax value has been reported?
Data returned: 14.1

----------
- Protocol Text: Pharmacokinetic parameters (Tmax, AUClast, Cmax) of DD217 in phase II trial patients
- Format: in vivo, human (patients undergoing knee replacement surgery)
- Condition Details: human, plasma, oral, 40 mg/day; ABCB1 rs4148738 C>T, T/T (n 8); read-out: Tmax (SD)
Property: Tmax (h)
Please respond with the number in h and leave the unit unwritten.

Data request: What measured Tmax goes with `CC(=N)N(C)c1ccc(C(=O)Nc2ccc(C)cc2C(=O)Nc2ccc(Cl)cn2)cc1.Cl` ?
Data returned: 12.9

----------
- Protocol Text: Pharmacokinetic parameters (Tmax, AUClast, Cmax) of DD217 in phase II trial patients
- Format: in vivo, human (patients undergoing knee replacement surgery)
- Condition Details: human, plasma, oral, 60 mg/day; ABCB1 rs1045642 T/T (n 7); read-out: AUClast (SD)
Property: AUC(0-t) (ng·h/mL)
Numbers only; they are read as ng·h/mL.

Data request: Please look up its AUC(0-t): `CC(=N)N(C)c1ccc(C(=O)Nc2ccc(C)cc2C(=O)Nc2ccc(Cl)cn2)cc1.Cl`
Data returned: 27.6

----------
- Protocol Text: Pharmacokinetic parameters (Tmax, AUClast, Cmax) of DD217 in phase II trial patients
- Assay type: in vivo, human (patients undergoing knee replacement surgery)
- Condition Details: human, plasma, oral, 40 mg; CYP2C8 rs10509681 T/T (n 13); read-out: Cmax (SD)
Property: Cmax (ng/mL)
API: value field is a number in ng/mL; no unit string.

Data request: Bench note: what Cmax did CC(=N)N(C)c1ccc(C(=O)Nc2ccc(C)cc2C(=O)Nc2ccc(Cl)cn2)cc1.Cl [DD217] show?
Data returned: 5.05

----------
- Protocol Text: Pharmacokinetic parameters (Tmax, AUClast, Cmax) of DD217 in phase II trial patients
- Type: in vivo, human (patients undergoing knee replacement surgery)
- Condition Details: human, plasma, oral, 60 mg/day; ABCB1 rs2032582 T/G (n 9); read-out: Cmax (SD)
Property: Cmax (ng/mL)
State just the number; it will be interpreted in ng/mL.

Data request: Please give the measured Cmax for this compound: CC(=N)N(C)c1ccc(C(=O)Nc2ccc(C)cc2C(=O)Nc2ccc(Cl)cn2)cc1.Cl [DD217]
Data returned: 4.87

----------
- Protocol Text: Pharmacokinetic parameters (Tmax, AUClast, Cmax) of DD217 in phase II trial patients
- Type: in vivo, human (patients undergoing knee replacement surgery)
- Condition Details: human, plasma, im, 60 mg; CYP2C9 *1/*2, *1/*3, IM (n = 5); mean ± SD; read-out: Tmax
Property: Tmax (h)
Reply numerically in h, unit not repeated.

Data request: Request the reported Tmax associated with `CC(=N)N(C)c1ccc(C(=O)Nc2ccc(C)cc2C(=O)Nc2ccc(Cl)cn2)cc1.Cl`
Data returned: 3.2

----------
- Protocol Text: Pharmacokinetic parameters (Tmax, AUClast, Cmax) of DD217 in phase II trial patients
- Type: in vivo, human (patients undergoing knee replacement surgery)
- Condition Details: human, plasma, oral, 40 mg; CYP2C8 rs10509681 T/T (n 13); read-out: AUClast (SD)
- Method: The design, eligibility criteria, and outcomes of the phase II clinical trial evaluating the safety and tolerability of DD217 (NCT05189002, ClinicalTrials.gov) have been described previously. […] To characterize the pharmacokinetic profile of DD217 in our study, three parameters were assessed: Cmax, Tmax, and AUClast.
Property: AUC(0-t) (ng·h/mL)
Numeric only. Scale: ng·h/mL

Data request: # get_value(readout='AUC(0-t)', item= `CC(=N)N(C)c1ccc(C(=O)Nc2ccc(C)cc2C(=O)Nc2ccc(Cl)cn2)cc1.Cl` )
Data returned: 41.2

----------
- Protocol Text: Pharmacokinetic parameters (Tmax, AUClast, Cmax) of DD217 in phase II trial patients
- Assay type: in vivo, human (patients undergoing knee replacement surgery)
- Condition Details: human, plasma, oral, 60 mg; CYP2C8 rs10509681 T/C (n 2); read-out: Tmax (h, SD)
Property: Tmax

Data request: I am curious: what Tmax value has been reported for `CC(=N)N(C)c1ccc(C(=O)Nc2ccc(C)cc2C(=O)Nc2ccc(Cl)cn2)cc1.Cl` ?
Data returned: 3 h

----------
- Protocol Text: Pharmacokinetic parameters (Tmax, AUClast, Cmax) of DD217 in phase II trial patients
- Format: in vivo, human (patients undergoing knee replacement surgery)
- Condition Details: human, plasma, oral, 40 mg/day; ABCB1 rs4148738 C>T, T/T (n 8); read-out: Cmax (SD)
Property: Cmax (ng/mL)
A number alone suffices; assume ng/mL.

Data request: Entry `CC(=N)N(C)c1ccc(C(=O)Nc2ccc(C)cc2C(=O)Nc2ccc(Cl)cn2)cc1.Cl` : reported Cmax = ?
Data returned: 4.84

----------
- Protocol Text: Pharmacokinetic parameters (Tmax, AUClast, Cmax) of DD217 in phase II trial patients
- Format: in vivo, human (patients undergoing knee replacement surgery)
- Condition Details: human, plasma, oral, 60 mg; CYP2C19 *1/*17, RM (n = 6); mean ± SD; read-out: Cmax
Property: Cmax (ng/mL)
A number alone suffices; assume ng/mL.

Data request: Record request: Cmax value, item `CC(=N)N(C)c1ccc(C(=O)Nc2ccc(C)cc2C(=O)Nc2ccc(Cl)cn2)cc1.Cl`
Data returned: 4.5

----------
- Protocol Text: Pharmacokinetic parameters (Tmax, AUClast, Cmax) of DD217 in phase II trial patients
- Type: in vivo, human (patients undergoing knee replacement surgery)
- Condition Details: human, plasma, oral, 60 mg/day; ABCB1 rs1045642 C/C (n 3); read-out: Tmax (SD)
Property: Tmax (h)
Kindly answer with a numeric value in h, unit omitted.

Data request: May I ask what Tmax has been recorded for CC(=N)N(C)c1ccc(C(=O)Nc2ccc(C)cc2C(=O)Nc2ccc(Cl)cn2)cc1.Cl [DD217] ?
Data returned: 2

----------
- Protocol Text: Pharmacokinetic parameters (Tmax, AUClast, Cmax) of DD217 in phase II trial patients
- Format: in vivo, human (patients undergoing knee replacement surgery)
- Condition Details: human, plasma, im, 40 mg; CYP3A *1/*22, *1/*3, IM (n = 4); mean ± SD; read-out: Tmax
Property: Tmax (h)
Write it as a number; the unit h goes unstated.

Data request: Fill blank: measured Tmax of the compound `CC(=N)N(C)c1ccc(C(=O)Nc2ccc(C)cc2C(=O)Nc2ccc(Cl)cn2)cc1.Cl` is ____.
Data returned: 6.25

----------
- Protocol Text: Pharmacokinetic parameters (Tmax, AUClast, Cmax) of DD217 in phase II trial patients
- Format: in vivo, human (patients undergoing knee replacement surgery)
- Condition Details: human, plasma, im, 40 mg; CYP2C19 *1/*2, IM (n = 1); read-out: AUClast
Property: AUC(0-t)
Show the value, then the unit it is measured in.

Data request: Please report the recorded AUC(0-t) for CC(=N)N(C)c1ccc(C(=O)Nc2ccc(C)cc2C(=O)Nc2ccc(Cl)cn2)cc1.Cl [DD217] .
Data returned: 48.5 ng·h/mL

----------
- Protocol Text: Pharmacokinetic parameters (Tmax, AUClast, Cmax) of DD217 in phase II trial patients
- Assay type: in vivo, human (patients undergoing knee replacement surgery)
- Condition Details: human, plasma, oral, 40 mg; CYP2C8 rs10509681 T/C (n 3); read-out: Tmax (h, SD)
Property: Tmax

Data request: Entry CC(=N)N(C)c1ccc(C(=O)Nc2ccc(C)cc2C(=O)Nc2ccc(Cl)cn2)cc1.Cl [DD217] has what Tmax?
Data returned: 16.7 h

----------
- Protocol Text: Pharmacokinetic parameters (Tmax, AUClast, Cmax) of DD217 in phase II trial patients
- Format: in vivo, human (patients undergoing knee replacement surgery)
- Condition Details: human, plasma, im, 40 mg; CYP2C19 *1/*2, IM (n = 1); read-out: Cmax
- Method: The design, eligibility criteria, and outcomes of the phase II clinical trial evaluating the safety and tolerability of DD217 (NCT05189002, ClinicalTrials.gov) have been described previously. […] To characterize the pharmacokinetic profile of DD217 in our study, three parameters were assessed: Cmax, Tmax, and AUClast.
Property: Cmax (ng/mL)
The response must be a number in ng/mL with no trailing unit.

Data request: Recorded Cmax of CC(=N)N(C)c1ccc(C(=O)Nc2ccc(C)cc2C(=O)Nc2ccc(Cl)cn2)cc1.Cl [DD217] , please.
Data returned: 3.12
